Target of assay: SHP-2 enzyme (Met1-Leu525) (Homo sapiens, UniProt Q06124)
Construct: synthetized by Origene, Met1-Leu525, cat #TP750155
Sequence (Q06124 1-525): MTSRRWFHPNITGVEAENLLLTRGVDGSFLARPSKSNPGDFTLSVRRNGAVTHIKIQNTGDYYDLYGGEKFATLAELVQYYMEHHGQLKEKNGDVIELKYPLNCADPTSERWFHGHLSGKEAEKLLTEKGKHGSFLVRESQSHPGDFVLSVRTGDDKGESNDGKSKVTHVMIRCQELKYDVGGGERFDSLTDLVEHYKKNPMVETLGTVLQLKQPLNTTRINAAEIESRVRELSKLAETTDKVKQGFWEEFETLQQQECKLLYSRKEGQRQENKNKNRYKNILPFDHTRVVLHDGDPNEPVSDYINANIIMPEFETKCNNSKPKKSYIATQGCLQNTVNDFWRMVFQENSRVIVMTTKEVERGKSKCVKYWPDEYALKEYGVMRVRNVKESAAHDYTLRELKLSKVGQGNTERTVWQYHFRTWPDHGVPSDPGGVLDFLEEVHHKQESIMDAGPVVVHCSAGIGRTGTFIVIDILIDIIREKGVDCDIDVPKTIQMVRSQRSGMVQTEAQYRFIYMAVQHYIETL
Assay remarks: SHP2 inhibition enzymatic assay (DiFMUP substrate, IRS1 peptide activation)
Conditions used: SHP2 wt; activated by 500 nM IRS1 peptide; 75 μM DiFMUP substrate
pIC50: −log10 of the molar value.
Reported property: pIC50

The examples below pair each entry with its known result.
COc1nc(N)ccc1Sc1cnc2[nH]c(N3CCC4(CC3)Cc3ccccc3[C@H]4N)nc2n1 [Example 269] ... > 6.30
CC1(N)CCN(c2nc3nc(Sc4ccncc4)cnc3[nH]2)CC1 [Example 80] ... 5.52 to 6.30
OC1CCN(c2nc3nc(Sc4cccnc4C(F)(F)F)cnc3[nH]2)CC1 [Example 41] ... < 5.52
COc1ncc(CN)cc1Sc1cnc2[nH]c(N3CCC4(CC3)Cc3ccccc3[C@H]4N)nc2n1 [Example 250] ... < 5.52
CC1(N)CCN(c2nc3nc(Sc4ccc(C#N)cc4C(F)(F)F)cnc3[nH]2)CC1 [Example 19] ... > 6.30
Nc1nccc(Sc2cnc3[nH]c(N4CCC5(CC4)Cc4ncccc4[C@H]5N)cc3n2)c1Cl [Example 267] ... > 6.30
N[C@@H]1c2ccccc2CC12CCN(c1nc3nc(Sc4ccc5cc[nH]c5c4)cnc3[nH]1)CC2 [Example 193] ... > 6.30
N[C@@H]1c2ccccc2CC12CCN(c1nc3nc(Sc4cccnc4OCc4ncco4)cnc3[nH]1)CC2 [Example 235] ... > 6.30

Please find the next molecule below.
Query CC(C)(CNc1nc2nc(Sc3cccnc3C(F)(F)F)cnc2[nH]1)Cc1cccnc1 [Example 113] yields pIC50 of < 5.52

====

System: ERK phosphorylation in KYSE-520 cells
Assay remarks: Phospho-ERK cellular assay (Advanced phospho-ERK1/2 (Thr202/Tyr204) TR-FRET kit)
Type: cell-based
Conditions used: Homo sapiens, KYSE-520, 2 h, KYSE-520 cells, 2 h at 37° C., TR-FRET; read-out: pERK IC50
Method: Phospho-ERK Cellular Assay ERK phosphorylation was detected using the “Advanced phospho-ERK1/2 (Thr202/Tyr204)” TR-FRET kit (Cisbio, Cat #64AERPEG/H), following the manufacturer reagents and instructions. […] After an overnight incubation, cells were treated with DMSO serial diluted compounds and incubated for 2 h at 37° C. […] After an overnight incubation, the TR-FRET signal was detected on a suitable reader (Envision, PerkinElmer). […]
pIC50: −log10 of the molar value.
Reported property: pIC50

Query "N[C@@H]1CCCC12CCN(c1nc3ncc(Sc4cccnc4C(F)(F)F)nc3[nH]1)CC2" yields pIC50 of 5.30 to 6.00

Query "COc1cc(Sc2cnc3[nH]c(N4CCC5(CC4)Cc4ccccc4[C@H]5N)nc3n2)c(Cl)cn1" yields pIC50 of 5.30 to 6.00

Query "Nc1cc(Sc2cnc3nc(N4CCC5(CC4)Cc4ccccc4[C@H]5N)[nH]c3n2)c(Cl)cn1" yields pIC50 of > 6.00

Query "C[C@@H]1OCC2(CCN(c3cc4nc(Sc5ccnc(N)c5Cl)cnc4[nH]3)CC2)[C@@H]1N" yields pIC50 of > 6.00

====

Target of assay: SHP-2 enzyme (Met1-Leu525) (Homo sapiens, UniProt Q06124)
Construct: synthetized by Origene, Met1-Leu525, cat #TP750155
Assay remarks: SHP2 inhibition enzymatic assay (DiFMUP substrate, IRS1 peptide activation)
Conditions used: SHP2 wt; activated by 500 nM IRS1 peptide; 75 μM DiFMUP substrate
pIC50: −log10 of the molar value.
Recorded pIC50 by entry

COc1c(Sc2cnc3nc(N4CCC5(CC4)Cc4ccc(F)cc4[C@H]5N)[nH]c3n2)ccnc1N [Example 190] ... > 6.30

Query CC1(N)CCN(c2nc3nc(Sc4cccc(C(=O)O)c4)cnc3[nH]2)CC1 [Example 94] yields pIC50 of > 6.30

Query CC1(N)CCN(c2nc3ncc(-c4cccc(Cl)c4Cl)nc3[nH]2)CC1 [Example 131] yields pIC50 of 5.52 to 6.30

Query CC1(N)CCN(c2nc3nc(Sc4ccn5nccc5n4)cnc3[nH]2)CC1 [Example 65] yields pIC50 of < 5.52
